// data source = patent US20250236644A1

- Target system: cs221-V111L-A114T DEER site pair 1
- Assay remarks: fluorescence polarization; MTSL-labeled, site pair 1
Ends that are not written are not given here.
Measured quantity: Kd (nM)

{5(6)‑TAMRA}-EERKKELAKEVIETAKKLIEKLAKEE [TAMRA-labeled peptide cs221B] = 0.4
